target: Cannabinoid receptor 2 (Homo sapiens, UniProt P34972); assay: Displacement of [3H]CP55940 from recombinant human CB2 receptor expressed in HEK293 cell membranes at 10 uM measured after 90 mins relative to control
Sequence (P34972 whole entry): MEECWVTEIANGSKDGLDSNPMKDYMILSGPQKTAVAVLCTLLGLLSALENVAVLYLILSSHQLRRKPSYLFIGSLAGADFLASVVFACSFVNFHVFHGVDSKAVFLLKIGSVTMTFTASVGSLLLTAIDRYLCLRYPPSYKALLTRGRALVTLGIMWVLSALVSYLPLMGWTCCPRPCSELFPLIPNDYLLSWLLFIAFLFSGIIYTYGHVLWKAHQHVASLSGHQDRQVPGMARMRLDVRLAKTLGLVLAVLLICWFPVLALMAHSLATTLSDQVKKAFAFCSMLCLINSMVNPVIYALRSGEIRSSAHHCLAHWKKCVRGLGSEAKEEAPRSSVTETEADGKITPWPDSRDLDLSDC
Recorded inhibition values for a group of molecules are listed next.
Express your answer in %, writing the number without its unit.

Give the measured inhibition of `CCN(CC)CCCn1c(Cc2ccc(OC)cc2)nc2cc(C(F)(F)F)ccc21` .
16.8

Field entry: `CCCCn1c(Cc2ccc(Cl)c(Cl)c2)nc2cc(C(F)(F)F)ccc21`
94.3

Field entry: `COc1ccc(Cc2nc3cc(C(C)=O)ccc3n2C[C@@H]2CCCN3CCCC[C@H]23)cc1`
15.6

Field entry: `COc1ccc(Cc2nc3cc(C(F)(F)F)ccc3n2C[C@@H]2CCCN3CCCC[C@H]23)cc1`
19.7

Field entry: `COCCn1c(Cc2ccc(Cl)c(Cl)c2)nc2cc(C(F)(F)F)ccc21`
53.8

Field entry: `CCN(CC)CCCn1c(Cn2nc3ccccc3n2)nc2cc(C(C)=O)ccc21`
17.5

Field entry: `Clc1ccc2c(c1)nc(Cn1nc3ccccc3n1)n2CC[C@@H]1CCCN2CCCC[C@H]12`
10.1

Field entry: `CCN(CC)CCn1c(-c2ccc(OC)cc2)nc2cc(C(F)(F)F)ccc21`
46.9

====

Recorded inhibition at 1.5 h, 10 µM values for a group of molecules are listed next.
biological target: Cannabinoid receptor 1 (CB1) (Homo sapiens, UniProt P21554); assay: Displacement of [3H]CP55940 from recombinant human CB1 receptor expressed in HEK293 cell membranes at 10 uM measured after 90 mins relative to control; settings: probe [3H]CP55940
Sequence (P21554 whole entry): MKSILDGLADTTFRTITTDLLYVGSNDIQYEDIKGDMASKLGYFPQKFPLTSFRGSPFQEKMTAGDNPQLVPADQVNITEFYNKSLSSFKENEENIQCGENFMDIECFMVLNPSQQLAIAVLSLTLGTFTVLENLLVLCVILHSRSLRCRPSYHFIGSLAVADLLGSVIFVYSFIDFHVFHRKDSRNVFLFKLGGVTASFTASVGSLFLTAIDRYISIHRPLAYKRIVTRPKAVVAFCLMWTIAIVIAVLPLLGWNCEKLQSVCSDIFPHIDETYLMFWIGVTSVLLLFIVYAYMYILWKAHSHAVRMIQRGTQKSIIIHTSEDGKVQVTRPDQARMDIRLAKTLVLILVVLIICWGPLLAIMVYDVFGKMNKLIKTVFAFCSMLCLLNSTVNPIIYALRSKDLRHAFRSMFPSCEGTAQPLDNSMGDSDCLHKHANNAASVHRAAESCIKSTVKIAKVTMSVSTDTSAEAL
Express your answer in %, writing the number without its unit.

INSERT INTO measurements (query_smiles, assay_result) VALUES
  ('COc1ccc(Cc2nc3cc(C(F)(F)F)ccc3n2C[C@@H]2CCCN3CCCC[C@H]23)cc1', 5.5),
  ('CCCCn1c(Cc2ccc(Cl)c(Cl)c2)nc2cc(C(F)(F)F)ccc21', 53.9),
  ('COc1ccc(Cc2nc3cc(C(C)=O)ccc3n2C[C@@H]2CCCN3CCCC[C@H]23)cc1', 47.6),
  ('COCCn1c(Cc2ccc(Cl)c(Cl)c2)nc2cc(C(F)(F)F)ccc21', 41.4);

Give the measured inhibition at 1.5 h, 10 µM of `CCN(CC)CCn1c(-c2ccc(OC)cc2)nc2cc(C(F)(F)F)ccc21` .
1.95

====

Recorded inhibition at 1.5 h, 10 µM values for a group of molecules are listed next.
target: Cannabinoid receptor 1 (CB1) (Homo sapiens, UniProt P21554); experiment: Displacement of [3H]CP55940 from recombinant human CB1 receptor expressed in HEK293 cell membranes at 10 uM measured after 90 mins relative to control; conditions: probe [3H]CP55940
Express your answer in %, writing the number without its unit.

INSERT INTO measurements (query_smiles, subject_of_test, quantity_measured, measurement_units, assay_result) VALUES
  ('CCN(CC)CCCn1c(Cc2ccc(OC)cc2)nc2cc(C(F)(F)F)ccc21', 'Cannabinoid receptor 1 (CB1) (Homo sapiens, UniProt P21554)', 'inhibition at 1.5 h, 10 µM', '%', 19.2),
  ('Clc1ccc2c(c1)nc(Cn1nc3ccccc3n1)n2CC[C@@H]1CCCN2CCCC[C@H]12', 'Cannabinoid receptor 1 (CB1) (Homo sapiens, UniProt P21554)', 'inhibition at 1.5 h, 10 µM', '%', 17.6);

Give the measured inhibition at 1.5 h, 10 µM of `CCN(CC)CCCn1c(Cn2nc3ccccc3n2)nc2cc(C(C)=O)ccc21` .
15

====

Recorded Ki values for a group of compounds are listed next.
target: Cannabinoid receptor 2 (Homo sapiens, UniProt P34972); assay: Displacement of [3H]CP55940 from recombinant human CB2 receptor expressed in HEK293 cell membranes measured after 90 mins

Consider the following illustrative entries.
INSERT INTO measurements (query_smiles, assay_result) VALUES
  ('CCN(CC)CCCn1c(Cn2nc3ccccc3n2)nc2cc(C(C)=O)ccc21', '> 10 µM'),
  ('COCCn1c(Cc2ccc(Cl)c(Cl)c2)nc2cc(C(F)(F)F)ccc21', '10 µM'),
  ('COc1ccc(Cc2nc3cc(C(F)(F)F)ccc3n2C[C@@H]2CCCN3CCCC[C@H]23)cc1', '> 10 µM'),
  ('CCCCn1c(Cc2ccc(Cl)c(Cl)c2)nc2cc(C(F)(F)F)ccc21', '0.37 µM'),
  ('COc1ccc(Cc2nc3cc(C(C)=O)ccc3n2C[C@@H]2CCCN3CCCC[C@H]23)cc1', '> 10 µM'),
  ('CCN(CC)CCn1c(-c2ccc(OC)cc2)nc2cc(C(F)(F)F)ccc21', '> 10 µM'),
  ('CCN(CC)CCCn1c(Cc2ccc(OC)cc2)nc2cc(C(F)(F)F)ccc21', '> 10 µM');

Give the measured Ki of `Clc1ccc2c(c1)nc(Cn1nc3ccccc3n1)n2CC[C@@H]1CCCN2CCCC[C@H]12` .
> 10 µM
